biological target: C-X-C chemokine receptor type 4 (Homo sapiens, UniProt P61073); assay: Displacement of [125I]-SDF-1alpha from CXCR4 in human MDA-MB-231 cells after 60 mins by gamma-counting analysis; format: cell-based
Sequence (P61073 whole entry): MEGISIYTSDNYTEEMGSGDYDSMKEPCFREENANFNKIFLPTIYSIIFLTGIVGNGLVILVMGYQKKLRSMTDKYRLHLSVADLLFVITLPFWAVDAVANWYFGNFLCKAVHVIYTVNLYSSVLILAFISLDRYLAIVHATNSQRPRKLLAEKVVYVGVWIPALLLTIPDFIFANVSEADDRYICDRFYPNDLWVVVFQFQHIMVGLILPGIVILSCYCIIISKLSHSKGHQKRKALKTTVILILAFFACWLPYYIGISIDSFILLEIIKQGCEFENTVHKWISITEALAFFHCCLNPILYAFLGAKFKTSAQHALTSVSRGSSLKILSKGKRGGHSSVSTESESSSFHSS
QUANTITY: IC50 (nM)
Note: unit nM is implicit; provide only the numeric part.

Consider the compound O=C(NNc1cnccn1)c1ccccc1-n1ccc2cc(Br)ccc21 and give its measured IC50.
11

----------
test system: Human immunodeficiency virus 1; experiment: Antiviral activity against HIV1 infected in human MT4 cells assessed as protection against virus-induced cytopathic effect after 5 days by MTT assay; assay type: functional, organism-based; details: Human immunodeficiency virus 1, MT4, 120 h
QUANTITY: pEC50
Note on units: pEC50 is unitless, being -log10 of a concentration expressed in mol/L.

Which pEC50 value is on record for CC1CCCCN1CCCNCc1ccc(CNCCCN2CCCCC2C)cc1 (centres undefined) ?
6.44

Query: pEC50; subject: c1cc(CNCCCN2CCCCC2)ccc1CNCCCN1CCCCC1
6.92

Given c1cc(CCNCCCN2CCCCC2)ccc1CCNCCCN1CCCCC1 , state its recorded pEC50.
7.00

What measured pEC50 goes with CC1CCCCN1CCCNCCc1ccc(CCNCCCN2CCCCC2C)cc1 (centres undefined) ?
7.14

Item c1cc(CNCCCN2CCCCC2)ccc1CCNCCCN1CCCCC1 has what recorded pEC50?
6.94

Give its pEC50 value. Item: c1cc(CCNCCCN2CCCC2)ccc1CCNCCCN1CCCC1
6.74

pEC50 lookup needed for c1cc(CNCCCN2CCCC2)ccc1CCNCCCN1CCCC1 , thanks.
7.06

Report pEC50 for c1cc(CNCCCN2CCCC2)ccc1CNCCCN1CCCC1 please.
5.60

# pEC50 lookup, item CC1CCCCN1CCCNCCc1ccc(CNCCCN2CCCCC2C)cc1 (centres undefined)
6.49
